Measured Endpoint: melting point

The examples below pair each entry with its known result.
[[record]]
molecule = "CCN(CC)c1ccc(Nc2ncc3ccc(=O)n(CC)c3n2)cc1"
result = "108 to 109 °C"

[[record]]
molecule = "O=c1ccc2cnc(Nc3cccc(N4CCCCC4)c3)nc2n1C1CCCCCC1"
result = "123 to 124 °C"

[[record]]
molecule = "CC(C)(C)OC(=O)C1CCCN1c1ccc(Nc2ncc3ccc(=O)n(C4CCCCC4)c3n2)cc1 (stereo not drawn)"
result = "144 to 145 °C"

[[record]]
molecule = "CCn1c(=O)ccc2cnc(Nc3ccc(-n4cccc4)cc3)nc21"
result = "220 to 222 °C"


List melting point for every entry below, keeping the order given.
1. O=c1ccc2cnc(Nc3ccc(N4CCC(CCO)CC4)cc3)nc2n1C1CCCCC1
2. O=c1ccc2cnc(Nc3ccccc3)nc2n1C1CC1
3. Nc1ncc2ccc(=O)n(C3CCCCC3)c2n1
4. O=c1ccc2cnc(Nc3ccccc3)nc2n1C1CCCCCC1
5. O=c1ccc2cnc(Nc3ccc(N4CCCCC4CO)cc3)nc2n1C1CC2CCC1C2 (stereo not drawn)

Data returned:
236 to 237 °C
191 to 193 °C
155 °C
156 to 158 °C
160 to 161 °C
